biological target: HSET full length protein (Homo sapiens (Human)); assay: HSET ADP-Glo Assay S - 3 μM ATP; settings: 5 nM HSET, 70 μg/mL microtubule, 80 min at rt, read-out: COMBINED HSET ADP GLO IC50
Provide the recorded IC50 for the entries that follow.
Write the quantity with the unit trailing the number.

CCOC(=O)c1sc(NC(=O)[C@@H](O)CNC(=O)c2cccc(C)c2)nc1C :: 1210 nM
CCCCc1sc(NC(=O)CCNC(=O)c2cccc(-c3noc(C)n3)c2)nc1C :: 348 nM
CCOC(=O)n1cc(NC(=O)CCNc2nccc3ccc(-c4cnn(C)c4)cc23)nc1C :: 13000 nM

Here is the next item to consider.
Req: Please report the recorded IC50 for CCCOC(=O)c1sc(NC(=O)C[C@H](CCCN2CCOCC2)NC(=O)c2cccc(-c3noc(C)n3)c2)nc1C .
Resp: 21 nM

---

target: HSET full length protein (Homo sapiens (Human), UniProt Q9BW19); assay: HSET ADP-Glo Assay S - 3 μM ATP; settings: 5 nM HSET, 70 μg/mL microtubule, 80 min at rt, read-out: COMBINED HSET ADP GLO IC50
Sequence (Q9BW19 whole entry): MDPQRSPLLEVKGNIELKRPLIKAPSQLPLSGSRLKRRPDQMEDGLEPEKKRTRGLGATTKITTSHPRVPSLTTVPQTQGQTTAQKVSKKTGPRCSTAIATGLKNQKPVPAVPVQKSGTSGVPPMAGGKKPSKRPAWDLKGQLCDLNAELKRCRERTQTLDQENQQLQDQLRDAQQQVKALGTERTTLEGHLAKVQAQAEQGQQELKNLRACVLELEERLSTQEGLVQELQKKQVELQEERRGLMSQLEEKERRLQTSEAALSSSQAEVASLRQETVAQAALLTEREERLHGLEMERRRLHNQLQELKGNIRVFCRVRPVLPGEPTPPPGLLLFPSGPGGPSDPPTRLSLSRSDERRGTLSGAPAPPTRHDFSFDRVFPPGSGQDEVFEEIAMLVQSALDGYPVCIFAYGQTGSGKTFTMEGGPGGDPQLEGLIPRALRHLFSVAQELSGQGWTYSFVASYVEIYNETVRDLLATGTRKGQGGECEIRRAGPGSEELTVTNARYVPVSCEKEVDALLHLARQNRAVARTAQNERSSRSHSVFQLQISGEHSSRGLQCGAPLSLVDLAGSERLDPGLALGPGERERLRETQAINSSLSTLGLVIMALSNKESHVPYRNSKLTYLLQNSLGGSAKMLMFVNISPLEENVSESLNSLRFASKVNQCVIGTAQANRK
MEASUREMENT KIND: log10 of IC50 (log10 of the value in nM)
Annotation: log10 of IC50, nM basis.

Cc1nc(-c2ccc3ccnc(N[C@H]4C[C@@H](C(=O)Nc5nc(C)c(C(=O)O[C@H](C)C(F)(F)F)s5)C4)c3c2)no1 (stereo in doubt) [Example 114] :: 1.23
CCCOC(=O)c1sc(C(=O)N2CC[C@H](NC(=O)c3cccc(-c4noc(C)n4)c3)C2)nc1C [Example 240] :: 1.99
CCCOC(=O)c1sc(C(=O)N2CC[C@H](NC(=O)c3cccc(-c4nnn(C)n4)c3)C2)nc1C [Example 242] :: 1.48
Cc1nc(-c2cccc(C(=O)NCCC(=O)Nc3nc(C)c(C(=O)OC(C)C)s3)c2)no1 [Example 66] :: 1.60
Cc1nc(-c2ccc3ccnc(N[C@H]4CCN(C(=O)c5cc(-c6ccccc6)n(C)n5)C4)c3c2)no1 [Example 248] :: 3.62

Give one value of log10 of IC50 per listed compound.
1. Cc1nc(-c2ccc3ccnc(NC[C@@H](O)C(=O)Nc4nc(C)c(CC(C)C)s4)c3c2)no1 [Example 191]
2. CCCOC(=O)c1cc(NC(=O)CCNC(=O)c2cccc(-c3noc(C)n3)c2)nn1C [Example 120]
3. Cc1ccc2ccnc(NC[C@@H](O)C(=O)Nc3nc(C)c(C(=O)OC(C)(C)C)s3)c2c1 [Example 184]
4. Cc1noc(-c2sc(NC(=O)CCNC(=O)c3cccc(-c4noc(C)n4)c3)nc2C)n1 [Example 118]
5. CCCOC(=O)c1sc(NC(=O)C[C@H](CCCN)Nc2nccc3ccc(-c4noc(C)n4)cc23)nc1C [Example 163]
6. Cc1nc(NC(=O)CCNC(=O)c2cccc(-c3cnn(C)c3)c2)sc1C(=O)OC(C)(C)C [Example 89]

Resp:
2.45
2.20
1.53
3.92
1.11
2.59

---

Provide the recorded pIC50 for the entries that follow.
biological target: HSET full length protein (Homo sapiens (Human), UniProt Q9BW19); experiment: HSET ADP-Glo Assay S - 3 μM ATP; details: 5 nM HSET, 70 μg/mL microtubule, 80 min at rt, read-out: COMBINED HSET ADP GLO IC50
Numbers only, as −log10 of the molar value.

// known answers, use as guide
CCCOC(=O)c1sc(C(=O)NCCNc2nccc3ccc(-c4noc(C)n4)cc23)nc1C [Example 70] :: 7.96
CNCCC[C@@H](CC(=O)Nc1nc(C)c(C(=O)OC(C)(C)C)s1)Nc1nccc2ccc(-c3noc(C)n3)cc12 [Example 168] :: 8.52
Cc1nc(-c2cccc(C(=O)N[C@@H](CC#N)CC(=O)Nc3nc(C)c(C(=O)OC(C)(C)C)s3)c2)no1 [Example 193] :: 8.30

Give one value of pIC50 per listed compound.
1. CCCOC(=O)c1sc(NC(=O)[C@H](CNc2nccc3ccc(-c4noc(C)n4)cc23)OC)nc1C [Example 186]
2. CCOC(=O)c1sc(C(=O)NCCNC(=O)c2cccc(-c3noc(CC)n3)c2)nc1C [Example 140]
3. CCOC(=O)c1sc(NC(=O)[C@H]2CNC[C@@H]2NC(=O)c2cccc(-c3noc(C)n3)c2)nc1C [Example 149, formic acid]
4. CCc1nc(NC(=O)CCNC(=O)c2cccc(-c3noc(C)n3)c2)sc1C(=O)OC [Example 90]
5. Cc1nc(NC(=O)CCNC(=O)c2cccc(-c3nnn(C)n3)c2)sc1C(=O)OC(C)C [Example 40]

Resp:
7.52
5.30
5.55
6.25
8.00
